Test system: M14 melanoma
Assay: NCI tumour cell line growth inhibition, 48 h

molecule	TGI
COC(=O)NC(Cc1ccccc1)NC(C)=O (stereo not drawn)	> 100 µM
CC1[C@@H]2CC=C3[C@H]4CCC5Cc6nc7c(nc6C[C@@]5(C)C4(O)CC(=O)[C@]32CO[C@]12OC(C)(C)CC2O)CC1CC[C@@H]2C3=C[C@H]4O[C@@]5(O[C@@](C)(CO)C[C@@H]5O)C(C)[C@@]4(O)[C@]3(C)[C@@H](O)CC2[C@]1(C)C7 (stereo partly drawn)	0.000363 µM
C=C1C(OC/C=C/COC2O[C@@H]3O[C@@]4(C)CC[C@H]5[C@H](C)CC[C@@H](C2=C)[C@@]35OO4)O[C@@H]2O[C@@]3(C)CC[C@H]4[C@H](C)CC[C@@H]1[C@@]24OO3 (stereo partly drawn)	27.5 µM
Nc1c(C(=O)N/N=C/c2ccc(-c3cc(Cl)c(Cl)cc3Cl)o2)cnn1-c1ccnc2c(C(F)(F)F)cccc12	> 100 µM
CCOc1ccc(/C=C2\NC(=S)N(/C=C3\C(=O)Oc4ccccc4C3=O)C2=O)cc1	92.4 µM
CCOC(=O)CCC(NC(=O)Cc1ccc(Oc2nc3ccccc3nc2-c2ccccc2)cc1)C(=O)OCC (stereo not drawn)	> 100 µM
CC1CCCc2c1c1ccc3c(O)cccc3c1oc2=O (stereo not drawn)	> 100 µM
CC(=O)Oc1cc(OC(C)=O)c2c(C)cc(=O)oc2c1	> 100 µM

* * *

Collected TGI values appear next to each entry.
Tested on: DMS 273 small cell lung
Assay: NCI tumour cell line growth inhibition, 48 h
measure: TGI

> print(dat)
                                   molecule  measure     result
1  O=C(CNc1ccc2c(=S)c3ccccc3[nH]c2c1)Nc1ccccc1-c1ccccc1NC(=O)CNc1ccc2c(=S)c3ccccc3[nH]c2c1      TGI  > 76.3 µM
2  CC(=O)[O-].[Zn].c1ccc(/C(=N\Nc2ccccn2)c2ccccn2)cc1      TGI    1.88 µM
3  O=C(Nc1nc2ccc([N+](=O)[O-])cc2s1)C(=O)C(C(=O)c1ccncc1)C1OC(=O)c2ccccc21 (stereo not drawn)      TGI   > 100 µM
4                            S=c1sc2cscc2s1      TGI   > 100 µM
5  CCN(CC)CCOC(=O)Cc1cccc2c(=O)cc(-c3ccccc3)oc12      TGI   > 625 µM
6  COC12CCC(C(C(=O)c3ccccc3)=C1C(=O)c1ccccc1)C(O)C2 (stereo not drawn)      TGI   > 100 µM
7    CCCCn1c2ccccc2c2ccc3c(c21)C(=O)C=CC3=O      TGI   > 100 µM
8       COc1cc(/C=C\c2ccc(Br)cc2)cc(OC)c1OC      TGI    13.8 µM

* * *

Test system: HCT-15 colon
Assay: NCI tumour cell line growth inhibition, 48 h
Collected GI50 values appear next to each entry.
measure: GI50

> print(dat)
                                   compound  measure    result
1  Cn1cnc2c(F)c(Nc3ccc(Br)cc3F)c(C(=O)NOCCO)cc21     GI50   57.5 µM
2  C=C(CNC(=O)c1ccccc1)c1ccc(C(=O)Nc2ccccc2N)cc1     GI50   8.14 µM
3            NC(=O)c1ccccc1NC(=O)c1ccccc1Cl     GI50  > 100 µM
4  COc1cc2c3c(n(CCCBr)c(=O)c2cc1OC)-c1ccc(F)cc1C3=O     GI50   48.7 µM
5  CC(C)C[C@H](NC(=O)CCn1ccc2ncccc2c1=O)B(O)O     GI50   28.1 µM
6  COc1cc(C2CC(=O)Nc3c2ccc2ccccc32)cc(Br)c1OC (stereo unspecified)     GI50  0.445 µM
